# System tested: human GPR84 receptor (Homo sapiens)
# Construct: frozen aliquots prepared by acCELLerate
# Sequence (Q9NQS5 whole entry): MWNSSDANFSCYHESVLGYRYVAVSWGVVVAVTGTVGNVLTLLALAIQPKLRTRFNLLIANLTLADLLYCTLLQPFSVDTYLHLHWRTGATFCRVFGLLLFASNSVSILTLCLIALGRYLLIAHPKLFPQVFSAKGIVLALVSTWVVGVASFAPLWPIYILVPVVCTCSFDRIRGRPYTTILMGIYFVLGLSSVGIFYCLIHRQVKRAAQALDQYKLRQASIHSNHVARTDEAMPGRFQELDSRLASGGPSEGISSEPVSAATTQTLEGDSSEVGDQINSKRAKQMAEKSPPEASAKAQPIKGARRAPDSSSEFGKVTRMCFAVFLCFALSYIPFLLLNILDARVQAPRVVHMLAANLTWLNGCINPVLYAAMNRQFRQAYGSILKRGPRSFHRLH
# Assay: cAMP HTRF assay for identification of cellular GPR84 antagonists
# Condition notes: CHO-K1 cells stably expressing human GPR84; Forskolin + agonist 6-OAU (EC80); average or median values
pIC50: −log10 of the molar value.
Property measured: pIC50

Please review the following examples before continuing.
Compound | Value observed
Cc1c(C(=O)NC[C@@H]2CCCO2)oc2c1-c1nn(C[C@H]3COCCO3)cc1C1(CC1)C2 | 7.29
Cc1ccc(Cn2cc3c(n2)-c2c(oc(C(=O)NC[C@@H]4COCCO4)c2C(F)(F)F)CC32CCC2)nc1 | 8.00
C[C@@H]1Cc2oc(C(=O)NC[C@@H]3CCCO3)c(C(F)(F)F)c2-c2nn(CC3CCN(C(=O)C4(O)CC4)CC3)cc21 (single isomer, unassigned) | 8.15
Cc1c(C(=O)NCC2CCC3(COC3)O2)oc2c1-c1nn(Cc3ccccn3)cc1CC2 (racemic) | 6.68

[1] Cc1c(C(=O)NCC2CCCCO2)oc2c1-c1nn(Cc3ccccn3)cc1CC2 (racemic)
[2] Cc1c(C(=O)NCc2ncco2)oc2c1-c1nn(Cc3ccccn3)cc1C1(CC1)C2
[3] Cc1c(C(=O)NCCN2CCN(C)CC2)oc2c1-c1nn(CC3COc4ncccc4O3)cc1CC2 (racemic)
[ask] Order these by pIC50, descending, and give the full ranking. Return value: ordered labels per request.
[reply] 2, 3, 1
